Here, each record is paired with measured Kd data.
Target: T1, human CD79b recombinant protein (human, UniProt P40259 29-159)
T1 construct: also called human CD79b ECD antigen; recombinant human CD79b ECD
T1 sequence: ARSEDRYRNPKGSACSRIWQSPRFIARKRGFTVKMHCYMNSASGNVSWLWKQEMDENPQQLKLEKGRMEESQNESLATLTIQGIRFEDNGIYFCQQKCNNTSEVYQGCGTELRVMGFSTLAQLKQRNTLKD
Assay: BLI, antibody captured on anti-human IgG Fc probes, human CD79b in solution, 1:1 model

| Binder | Unit descriptor | Kd |
| --- | --- | --- |
| ch22D10 (antibody, human IgG1, kappa, V domains shown, Rabbit/human chimeric IgG1 kappa; also called chimeric 22D10) VH: QSVEESGGRLVTPGTPLTLTCTASGFTINDYHMNWVRQAPGKGLEWIGIISSNGDTYYASWAKGRFTISRTSTTVDLKMTSLTTEDTATYFCARDDRDRSYAFDPWGPGTLVTVSS VL: ALVMTQTPSSVSAAVGGTVTINCRASEDIERYLAWYQQKPGQRPKLLIYGASTLASGVPSRFKGSGSGTEYTLTISGVQPDDAATYYCHQGDSSRNVVNVFGGGTEVVVKR | nM | 0.313 |
| ch48H10 (antibody, human IgG1, kappa, V domains shown, Rabbit/human chimeric IgG1 kappa; also called chimeric 48H10) VH: QSVKETGGGLVQPGGSLTLSCKASGFTINIDYWISWVRQAPGKGLEWIGIIDPGDGTTYFAIWVSGRFTISTDNAQNTVDLQMNSLTAADTATYFCAREFSASAYQYDLWGPGTLVTVSS VL: ALVMTQTPSSVSAAVGGTVSINCQASEDIESYLTWYQQKPGQPPKLLMYRASTLSSGVSSRFSASGSGTEFTLTISGVQPDDAATYYCQQGYRNKDVDNPFGGGTEVVVKR | nM | 0.0314 |
| ch23D8 (antibody, human IgG1, kappa, V domains shown, Rabbit/human chimeric IgG1 kappa; also called chimeric 23D8) VH: QSLEESGGGLVTPGGTLTLTCTVSGLSLSSNAINWVRQAPGKGLEWIGMIYSGGRIEYASWAKGRFTISKTSTTVDLKITSPTTEDTATYFCAKGMSPSAHSSDIWGPGTLVTVSA VL: AYDMTQTPASVEVAVGGTVTIKCQASQSISDNLSWYQQKPGQPPKLLIYDASDLASGVPSRFSGSGSGTEFTLTISDLEPADAATYYCQQDWISSNVDNTFGGGTEVVVKR | nM | 0.32 |
